Source of measurements: patent US20030181447A1

Reported melting point values follow for various molecules
Counter-ions that a name gives are not always drawn.

{"Molecule": "CCN(CC)C(=O)c1ccc(C(=C2CC3CCC(C2)N3CCc2ccccc2)c2ccccc2)cc1 (single isomer, unassigned; (-)) (as salt: hydrochloride) [Example 23]", "melting point": "210 to 211 °C"}
{"Molecule": "CCN(CC)C(=O)c1ccc(C(=C2CC3CCC(C2)N3C)c2ccccc2)cc1.Cl", "melting point": "145 to 147 °C"}
{"Molecule": "CCN(CC)C(=O)c1ccc(C(=C2CC3CCC(C2)N3CCc2ccccc2)c2ccccc2)cc1 (single isomer, unassigned; (+)) (as salt: hydrochloride) [Example 24]", "melting point": "211 to 212 °C"}
{"Molecule": "CN(C(=O)c1cccc(C(=C2CC3CCC(C2)N3C)c2ccccc2)c1)c1cccc(F)c1.O=C(O)/C=C/C(=O)O", "melting point": "122 to 125 °C"}
{"Molecule": "NC(=O)c1ccc(C(=C2CC3CCC(C2)N3CCc2ccccc2)c2ccccc2)cc1 (as salt: hydrochloride)", "melting point": "210 to 212 °C"}
{"Molecule": "CCN(CC)C(=O)c1ccc(C(=C2CC3CCC(C2)N3)c2ccccc2)cc1.Cl", "melting point": "128 to 132 °C"}
{"Molecule": "CCCN1C2CCC1CC(=C(c1ccccc1)c1ccc(C(=O)N(CC)CC)cc1)C2.Cl", "melting point": "184 °C"}
{"Molecule": "CCNC(=O)c1ccc(C(=C2CC3CCC(C2)N3CCc2ccccc2)c2ccccc2)cc1 (as salt: HCl)", "melting point": "296 to 298 °C (dec.)"}
